Assay: Budesonide solubility in saline
Assay type: physicochemical
Conditions: saline or isotonic, thermodynamic from solid, 37° C., read-out: saturation solubility in saline
Experimental: The maximum solubility of budesonide in saline was determined as described (Gennaro A R, editor. Remington: The Science and Practice of Pharmacy. 20th ed. Philadelphia, Pa.: Lippincott Williams & Wilkins, 2000, which is incorporated herein by reference). […] The budesonide concentrations in the solution phase were measured by High Performance Liquid Chromatography (HPLC). […]
Measure name: solubility at 24 h (µg/mL)
Respond with the bare value in µg/mL.

Memo: CCCC1O[C@@H]2C[C@H]3[C@@H]4CCC5=CC(=O)C=C[C@]5(C)[C@H]4[C@@H](O)C[C@]3(C)[C@]2(C(=O)CO)O1 (stereo partly shown) [Budesonide] , reported solubility at 24 h: 27
